# assay_explanation: NCI Yeast Anticancer Drug Screen. Data for the cln2 rad14 strain (AID 165);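 also: 0% = growth equal to vehicle treated cultures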
# assay_conditions: S. cerevisiae cln2 rad14 strain, at 5.0 µM (retest, dose inferred, filed as 0.5), active compounds read high
# Description: Growth inhibition of yeast strains with defined genetic alterations is measured as a screen for potential anti-cancer activity. Selected strains with alterations in DNA damage repair or cell cycle control were exposed to compounds and growth inhibition was measured relative to vehicle treated controls. The strain used in this assay is cln2 rad14
Compounds without any hit were thinned out: in the full panel of roughly 79,000, 15% have a hit.
reported_property: growth inhibition (%)
Numbers only, in %.

1. CCCC(=O)c1cc(O)c(O)c(CN(C)Cc2cc(Cl)cc(C)c2O)c1O : -16
2. CCOc1cc2c(cc1Cc1c(OC)cc(OC)cc1OC)OCO2 : 4

Provide each entry's growth inhibition from the list below.
1. O=S(=O)(Nc1ccccc1)c1ccccc1CC(O)(c1ccccc1)c1ccccc1
2. Cc1cc(N2C(=O)CCSC2=S)ccc1Cl

Given back:
59
47
